A short record of MIC observed with E. coli (Gram-negative) follows.
One number for each entry, in µg/mL.

Record MIC for all entries; do not skip any.
1. Cc1ccc(C)n1-c1ccc(C(=O)NNC(=O)COc2ccc(Cl)cc2)cc1
2. O=C(COc1ccccc1Cl)NNC(=O)c1ccc(-n2cccc2)cc1
3. Cc1cccc(OCC(=O)NNC(=O)c2ccc(-n3cccc3)cc2)c1
4. Cc1cccc(OCC(=O)NNC(=O)c2ccc(-n3c(C)ccc3C)cc2)c1
5. Cc1ccc(OCC(=O)NNC(=O)c2ccc(-n3c(C)ccc3C)cc2)cc1
6. Cc1ccc(C)n1-c1ccc(C(=O)NNC(=O)COc2ccccc2)cc1

Result string:
1: 6.25; 2: 6.25; 3: 12.5; 4: 3.12; 5: 12.5; 6: 6.25

Record MIC for all entries; do not skip any.
1. Cc1ccc(C)n1-c1ccc(C(=O)NNC(=O)COc2cc(O)cc(O)c2)cc1
2. Cc1ccc(C)n1-c1ccc(C(=O)NNC(=O)COc2ccccc2Cl)cc1
3. Cc1ccc(OCC(=O)NNC(=O)c2ccc(-n3c(C)ccc3C)cc2)c(C)c1
4. O=C(COc1ccccc1)NNC(=O)c1ccc(-n2cccc2)cc1
5. O=C(COc1cc(O)cc(O)c1)NNC(=O)c1ccc(-n2cccc2)cc1
6. Cc1cc(C)cc(OCC(=O)NNC(=O)c2ccc(-n3c(C)ccc3C)cc2)c1

Result string:
[3.12, 6.25, 3.12, 6.25, 1.6, 3.12]

Record MIC for all entries; do not skip any.
1. Cc1ccc(C)n1-c1ccc(C(=O)NNC(=O)COc2cccc(O)c2)cc1
2. Cc1ccc(OCC(=O)NNC(=O)c2ccc(-n3cccc3)cc2)c(C)c1
3. O=C(COc1cccc(O)c1)NNC(=O)c1ccc(-n2cccc2)cc1
4. O=C(COc1ccc(Cl)cc1)NNC(=O)c1ccc(-n2cccc2)cc1
5. Cc1ccc(C)n1-c1ccc(C(=O)NNC(=O)COc2ccccc2O)cc1
6. O=C(O)c1cn(C2CC2)c2cc(N3CCNCC3)c(F)cc2c1=O [Ciprofloxacin, reference compound]

Result string:
1. 3.12
2. 1.6
3. 12.5
4. 12.5
5. 12.5
6. 2

###

A short record of MIC observed with M. tuberculosis H37Rv follows.
Numbers only, in µg/mL.

Cc1cccc(OCC(=O)NNC(=O)c2ccc(-n3c(C)ccc3C)cc2)c1 [Compound 5e] | 1.6
Cc1ccc(C)n1-c1ccc(C(=O)NNC(=O)COc2ccccc2O)cc1 [Compound 5c] | 12.5
Cc1ccc(C)n1-c1ccc(C(=O)NNC(=O)COc2cc(O)cc(O)c2)cc1 [Compound 5g] | 3.12
O=C(COc1ccc(Cl)cc1)NNC(=O)c1ccc(-n2cccc2)cc1 [Compound 3f] | 6.25

Then there is this molecule:
Query string: Give the measured MIC for O=C(COc1cc(O)cc(O)c1)NNC(=O)c1ccc(-n2cccc2)cc1 [Compound 3g]
Result string: 3.12
